Hello, the source for this data is the Immune Epitope Database (IEDB), in case you need it.

Target: HLA-B*51:01
Assay: IEDB peptide-MHC binding, purified MHC/direct/fluorescence; filed as Kd, often an IC50 or EC50 that approximates it; bounds were set here for any values at or beyond the usual limits of such assays
Settings: source organism: Dengue virus
recorded_endpoint: Kd

Problem: Please look up its Kd: CPTQGEATL
Result: ≥ 20 µM

* * *

Target: HLA-A*02:01
Test: IEDB peptide-MHC binding, purified MHC/competitive/radioactivity; filed as Kd, often an IC50 or EC50 that approximates it; bounds were set here for any values at or beyond the usual limits of such assays
Details: source organism: Dengue virus 4 Philippines/H241/1956
recorded_endpoint: pKd
# pKd = -log10(concentration in molar units)

Problem: Give recorded pKd with HLA-A*02:01 for the following sequence: KMKKKTWLV
Result: 7.18

Problem: Notebook entry, HLA-A*02:01 assay: pKd of ALPVYLMTL = ?
Result: 7.96

Problem: Which pKd is reported with HLA-A*02:01 for this entry: VILAGPIPV ?
Result: 8.17

Problem: Could you share what pKd was measured for ILAKAIFKL , tested on HLA-A*02:01?
Result: 7.85
